Biological target: T1, alpha subunit of the human FcεRI receptor (IgE high affinity receptor), expressed on Chinese hamster ovary … (human, UniProt P12319 26-257)
T1 construct: whole, on cells; also called CHO FcεRI+ cells; FcεRIα
T1 sequence (looked up): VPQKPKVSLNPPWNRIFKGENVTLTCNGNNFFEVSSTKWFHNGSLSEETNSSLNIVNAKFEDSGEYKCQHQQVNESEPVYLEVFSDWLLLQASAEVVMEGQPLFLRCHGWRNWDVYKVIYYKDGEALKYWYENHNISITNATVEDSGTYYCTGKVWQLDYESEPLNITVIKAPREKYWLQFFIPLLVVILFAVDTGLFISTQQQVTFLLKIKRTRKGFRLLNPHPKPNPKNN
Assay: inhibition of 125I-IgE binding to CHO cells expressing human FcεRI alpha; competitor IgE
pIC50: −log10 of the molar value. Bridges are numbered along the chain shown (N, C = ends). Where no end group is shown, it is not given here. [ ]: non-standard residue; d: D form. dPip = O=C(O)[C@H]1CCCCN1; hCys = N[C@@H](CCS)C(=O)O
Below is a list of entries, each paired with its recorded pIC50 value.
READOUT TYPE: pIC50

>  <BINDER>
ALCPAVCYV-NH2 (also: antiparallel disulfide-linked homodimer, interchain C3-C7' and C7-C3', also called antiparallel covalent dimer of IGE037) [IGE089]

>  <READOUT TYPE>
pIC50

>  <EXPERIMENTAL RESULT>
4.19

$$$$
>  <BINDER>
CPHFCYELDYELCPDVCY-NH2 (not fully specified (bridges); cysteine pairing not given here) [IGE155]

>  <READOUT TYPE>
pIC50

>  <EXPERIMENTAL RESULT>
7.16

$$$$
>  <BINDER>
VQCPHFCYFGGAEL[hCys]PDVCYV-NH2 (disulfide (positions not given here)) [IGE164]

>  <READOUT TYPE>
pIC50

>  <EXPERIMENTAL RESULT>
4.39

$$$$
>  <BINDER>
Ac-CPHFCYFGAELCPDVCY-NH2 (not fully specified (bridges); cysteine pairing not given here) [IGE171]

>  <READOUT TYPE>
pIC50

>  <EXPERIMENTAL RESULT>
6.54

$$$$
>  <BINDER>
VQCPHFCYVGGKVQCPHFCYV-NH2 (not fully specified (bridges); cysteine pairing not given here) [IGE131]

>  <READOUT TYPE>
pIC50

>  <EXPERIMENTAL RESULT>
5.64

$$$$
>  <BINDER>
VQCPHFCYELDYEAGDERLCPDVCYV-NH2 (disulfide (positions not given here); also: two disulfides, pairing not settled) [IGE189]

>  <READOUT TYPE>
pIC50

>  <EXPERIMENTAL RESULT>
6.82

$$$$
>  <BINDER>
VQCPHFCYFGAELCPDVCYV (disulfide 7-14, 3-18) [IGE152]

>  <READOUT TYPE>
pIC50

>  <EXPERIMENTAL RESULT>
7.28

$$$$
>  <BINDER>
VQCPHFCYFGGAELCPDVCYV (not fully specified (bridges); cysteine pairing not given here) [IGE151]

>  <READOUT TYPE>
pIC50

>  <EXPERIMENTAL RESULT>
6.89

$$$$
>  <BINDER>
VQCPHFCYFGGAELCPDVCYV-NH2 (cysteine pairing not given here) [IGE135]

>  <READOUT TYPE>
pIC50

>  <EXPERIMENTAL RESULT>
7.33

$$$$
>  <BINDER>
VQCPHFCYFGGAELC[dPip]DVCYV-NH2 (disulfide 7-15, 3-19) [IGE161-1]

>  <READOUT TYPE>
pIC50

>  <EXPERIMENTAL RESULT>
4.39

$$$$
